Hi there, I'd appreciate the recorded percent inhibition of viability for every entry that follows.
# System: SNK-6 (IL-2 2.5 ng/mL)
# methodSummary: percent inhibition of viability; higher = more inhibition
# assayConditions: 72 h; 1 nM
Respond numerically; units are % and should not be typed.

response.value for COc1ccc(COc2cc3oc(=O)c4cc(C(C)O)ccc4c3cc2OC)cc1 (stereo unspecified) [Palomid-529] (max concentration tested 10000 nM) (field: percent inhibition of viability) = -15.9

response.value for CC(C)CC(=O)Nc1n[nH]c2c1CN(C(=O)C1CCN(C)CC1)C2(C)C (max concentration tested 10000 nM) (field: percent inhibition of viability) = 1.24

response.value for Cc1nc(C(=O)NCC(=O)O)c(O)c2ccc(Oc3ccccc3)cc12 [FG-4592] (max concentration tested 10000 nM) (field: percent inhibition of viability) = 3.91

response.value for O=C1CCC(N2C(=O)c3ccccc3C2=O)C(=O)N1 (stereo unspecified) [Thalidomide] (max concentration tested 10000 nM) (field: percent inhibition of viability) = -14.3

response.value for Cc1cc(OCc2nnc(SC3CCCC3)n2-c2cccnc2)ccc1-c1ccc(S(C)(=O)=O)cc1 [NMS-873] (max concentration tested 10000 nM) (field: percent inhibition of viability) = 0.98

response.value for CN(C)C[C@@H]1CCn2cc(c3ccccc32)C2=C(C(=O)NC2=O)c2cn(c3ccccc23)CCO1 [Ruboxistaurin] (max concentration tested 10000 nM) (field: percent inhibition of viability) = -9.54

###

# Tested on: NKL (IL-2 2.5 ng/mL)
# methodSummary: percent inhibition of viability; higher = more inhibition
# assayConditions: 72 h; 10000 nM
// boundary case: percent inhibition of viability equal to 50% maps to n; strictly smaller maps to y

Determine if COc1ccc(-c2nc(N3CCOCC3)c3sc(CN(C)c4ncc(C(=O)NO)cn4)cc3n2)cn1 [CUDC-907] (max concentration tested 10000 nM) shows percent inhibition of viability strictly lower than 50%. n

Determine if Cc1ncc(-c2ccnc(Nc3ccc(S(C)(=O)=O)cc3)n2)n1C(C)C [AZD-5438] (max concentration tested 10000 nM) shows percent inhibition of viability strictly lower than 50%. n

Determine if COc1ccc(-c2ccc3c(N4CCOC[C@@H]4C)nc(N4CCOC[C@@H]4C)nc3n2)cc1CO [AZD8055] (max concentration tested 10000 nM) shows percent inhibition of viability strictly lower than 50%. n

Determine if O=c1ncn2nc(Sc3ccc(F)cc3F)ccc2c1-c1c(Cl)cccc1Cl [VX 745] (max concentration tested 10000 nM) shows percent inhibition of viability strictly lower than 50%. n

Determine if CNc1nc(-c2ccc3c(N)n[nH]c3c2)cc(N2C[C@@H](C(=O)NC3CCCCC3)CC[C@H]2C)n1 (max concentration tested 10000 nM) shows percent inhibition of viability strictly lower than 50%. y

Determine if CS(=O)(=O)c1ccc(C2=C(c3ccccc3)C(=O)OC2)cc1 [Rofecoxib] (max concentration tested 10000 nM) shows percent inhibition of viability strictly lower than 50%. y

Determine if COc1ccc(COc2cc3oc(=O)c4cc(C(C)O)ccc4c3cc2OC)cc1 (stereo not drawn) [Palomid-529] (max concentration tested 10000 nM) shows percent inhibition of viability strictly lower than 50%. y

Determine if CCc1c(C(=O)C(N)=O)c2c(OCC(=O)O)cccc2n1Cc1ccccc1 [Varespladib] (max concentration tested 10000 nM) shows percent inhibition of viability strictly lower than 50%. y

Determine if Cc1c(C(=O)Nc2ccc(N3C[C@@H](C)O[C@@H](C)C3)nc2)cccc1-c1ccc(OC(F)(F)F)cc1 [Sonidegib] (max concentration tested 10000 nM) shows percent inhibition of viability strictly lower than 50%. y

Determine if O=NN(CCCl)C(=O)NC1CCCCC1 [Lomustine] (max concentration tested 10000 nM) shows percent inhibition of viability strictly lower than 50%. y

Determine if CC[C@H](CO)Nc1nc(NCc2ccccc2)c2ncn(C(C)C)c2n1 [Seliciclib] (max concentration tested 10000 nM) shows percent inhibition of viability strictly lower than 50%. y

Determine if O[C@H]1CC[C@H](Nc2ncc3nc(Nc4c(F)cc(F)cc4F)n([C@H]4CCOC4)c3n2)CC1 [Tanzisertib] (max concentration tested 10000 nM) shows percent inhibition of viability strictly lower than 50%. y

###

Hi there, I'd appreciate the recorded percent inhibition of viability for every entry that follows.
# System: normal primary NK cells, pool 2 (3 donors) (IL-2 2.5 ng/mL)
# methodSummary: percent inhibition of viability; higher = more inhibition
# assayConditions: 72 h; 1000 nM
Respond numerically; units are % and should not be typed.

response.value for c1ccc([C@H]2CN3CCSC3=N2)cc1 [Levamisole] (max concentration tested 10000 nM) (field: percent inhibition of viability) = -7.03

response.value for C[C@@H]1COC(Nc2ccc3ncnc(Nc4ccc(OCc5nccs5)c(Cl)c4)c3c2)=N1 [Varlitinib] (max concentration tested 10000 nM) (field: percent inhibition of viability) = 1.02

response.value for COc1ccc(-c2nc(N3CCOCC3)c3sc(CN(C)c4ncc(C(=O)NO)cn4)cc3n2)cn1 [CUDC-907] (max concentration tested 10000 nM) (field: percent inhibition of viability) = 94

###

# Test system: NK-YS (IL-2 2.5 ng/mL)
# methodSummary: percent inhibition of viability; higher = more inhibition
# assayConditions: 72 h; 100 nM
measuredParameter: percent inhibition of viability (%)
Respond numerically; units are % and should not be typed.

Response field percent inhibition of viability (NK-YS (IL-2 2.5 ng/mL)) for item COc1ccc(S(=O)(=O)Nc2cccnc2Nc2ccc(O)cc2)cc1 [ABT-751] (max concentration tested 10000 nM) : 23.9

Response field percent inhibition of viability (NK-YS (IL-2 2.5 ng/mL)) for item CS(=O)(=O)c1ccc(C2=C(c3ccccc3)C(=O)OC2)cc1 [Rofecoxib] (max concentration tested 10000 nM) : -2.98

Response field percent inhibition of viability (NK-YS (IL-2 2.5 ng/mL)) for item N[C@@H]1CCCN(c2c(/C=C3\SC(=O)NC3=O)cccc2-c2ccccc2)C1 [AZD1208] (max concentration tested 10000 nM) : 2.23

###

# Test system: NK-YS (IL-2 2.5 ng/mL)
# methodSummary: percent inhibition of viability; higher = more inhibition
# assayConditions: 72 h; 10000 nM
measuredParameter: percent inhibition of viability
The reply should read as a number followed by its unit.

response.value for CCc1cc(Nc2nccc(-c3c(-c4ccc(OC)c(C(=O)Nc5c(F)cccc5F)c4)nc4ccccn34)n2)c(OC)cc1N1CCC(N2CCN(S(C)(=O)=O)CC2)CC1 (max concentration tested 10000 nM) (field: percent inhibition of viability) = 7.23%

response.value for c1ccc([C@H]2CN3CCSC3=N2)cc1 [Levamisole] (max concentration tested 10000 nM) (field: percent inhibition of viability) = -6.1%

response.value for Cc1nc(C(=O)NCC(=O)O)c(O)c2ccc(Oc3ccccc3)cc12 [FG-4592] (max concentration tested 10000 nM) (field: percent inhibition of viability) = 27.3%

###

# System: NK-92 (IL-2 2.5 ng/mL)
# methodSummary: relative IC50 (inflection point of fitted viability curve, relative to fitted max inhibition); higher = less sensitive
# assayConditions: 72 h
measuredParameter: relative IC50
The reply should read as a number followed by its unit.

response.value for COc1cc(Nc2c(C#N)cnc3cc(OCCCN4CCN(C)CC4)c(OC)cc23)c(Cl)cc1Cl [Bosutinib] (field: relative IC50) = 1620 nM

response.value for Cc1cc(OCc2nnc(SC3CCCC3)n2-c2cccnc2)ccc1-c1ccc(S(C)(=O)=O)cc1 [NMS-873] (field: relative IC50) = 506 nM

response.value for CO[C@H]1/C=C\C=C(/C)C(=O)NC2=CC(=O)C(NCCN(C)C)=C(C[C@@H](C)C[C@H](OC)[C@H](O)[C@@H](C)/C=C(\C)[C@@H]1OC(N)=O)C2=O [Alvespimycin] (field: relative IC50) = 68.8 nM

response.value for CO[C@@]12[C@H](COC(N)=O)C3=C(C(=O)C(C)=C(N)C3=O)N1C[C@@H]1N[C@@H]12 [Mitomycin C] (field: relative IC50) = 1510 nM

###

# Tested on: normal primary NK cells, pool 1 (3 donors) (IL-2 2.5 ng/mL)
# methodSummary: drug sensitivity score (DSS) (DSS units); higher = more sensitive; extreme values may be limits of the assay
# assayConditions: 72 h
measuredParameter: drug sensitivity score
No unit in the answer, please; the number alone is enough.

response.value for Cn1cc(-c2ccc3nnc(Sc4ccc5ncccc5c4)n3n2)cn1 [SGX-523] (max concentration tested 5000 nM) (field: drug sensitivity score) = 0

response.value for COc1ccccc1S(=O)(=O)Nc1ccc2c(c1)CN(C)C(=O)N2 [PFI-1] (max concentration tested 10000 nM) (field: drug sensitivity score) = 1.98

response.value for CC(=O)[C@]1(O)Cc2c(O)c3c(c(O)c2[C@@H](O[C@H]2C[C@H](N)[C@H](O)[C@H](C)O2)C1)C(=O)c1ccccc1C3=O [Idarubicin] (max concentration tested 1000 nM) (field: drug sensitivity score) = 20.9

response.value for CCC1=C[C@@H]2CN(C1)Cc1c([nH]c3ccccc13)[C@@](C(=O)OC)(c1cc3c(cc1OC)N(C)[C@H]1[C@@](O)(C(=O)OC)[C@H](OC(C)=O)[C@]4(CC)C=CCN5CC[C@]31[C@@H]54)C2 [Vinorelbine] (max concentration tested 10000 nM) (field: drug sensitivity score) = 2.8

response.value for OCCn1cc(-c2cnc3nnn(Cc4ccc5ncccc5c4)c3n2)cn1 (max concentration tested 2500 nM) (field: drug sensitivity score) = 0.34
